Test system: Wnt5a (protein binding on small-molecule microarray)
experiment: Wnt5a binders on small-molecule microarray, primary screen, biophysical, 635/667 nm fluorescence (AID 1142);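 also: fluorescence read at 667 nm with signal to noise per printed feature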
experimental-setup: 635 nm fluorescence, higher = more signal

compound	target-or-system	composite z-score
COC(=O)C1=CC(c2ccc(CO)cc2)=CC(c2cccs2)N(Cc2cccc(OC(F)(F)F)c2)C=C1C(=O)OC (configuration not stated)	Wnt5a (protein binding on small-molecule microarray)	0.0365
CO[C@@H]1COC(=O)CC=C[C@@H](C)[C@H](OC)COC(=O)CC=C[C@H]1C	Wnt5a (protein binding on small-molecule microarray)	-0.0731
COCCOC(=O)N1C(=O)[C@@]2(c3cc(C#CCCO)ccc31)[C@H](c1ccc(OCCO)cc1)N1[C@H](c3ccccc3)[C@H](c3ccccc3)OC(=O)[C@H]1[C@@H]2C(=O)NC[C@H](O)c1ccccc1	Wnt5a (protein binding on small-molecule microarray)	0.619
C=CCN(C(=O)C1N(c2ccc(CCO)cc2)C(=O)C2C(C(=O)O)C3C=CC21O3)C(C)(C)C (configuration not stated)	Wnt5a (protein binding on small-molecule microarray)	-0.505
C=CCC(OC(C)=O)[C@@H]1[C@@H](N(Cc2ccc(-c3ccccc3)cc2)C(=O)c2ccc(C)cc2)c2cc(OCCCO)ccc2N1C(=O)c1ccc(-c2ccccc2)cc1 (some centres not stated)	Wnt5a (protein binding on small-molecule microarray)	0.504
CC(c1ccccc1)C(O)C1C=CC2C(=O)N(C)C(=O)C2N1N(c1ccccc1)c1ccccc1 (configuration not stated)	Wnt5a (protein binding on small-molecule microarray)	0.156
CCC1=C2CN(Cc3ccccc3Br)[C@@H]([C@@H](O)Cc3ccccc3)C2C=CCC1 (some centres not stated)	Wnt5a (protein binding on small-molecule microarray)	0.0361

* * *

Measured z-score of individual entries
experiment: A549 cell viability effects, profiling panel, calcein-AM fluorescence, 48 h, basal (AID 1162); also: test concentration not given here
experimental-setup: higher = more signal
reported-property: z-score

compound	data-value
Cc1ccc(S(=O)(=O)N[C@H]2COC(=O)CC=C[C@H](C)COC(=O)N[C@@H](C)C(=O)CC=C[C@@H]2C)cc1	-0.235
CC(C)[Si]1(C(C)C)O[C@@H](c2ccccc2)c2cc(C3CC3)nc(-c3ccc(Oc4ccccc4)cc3)c21	-0.654
C=C(COC)/C(=C/C[C@@H](OC(C)=O)c1cccc(OCCO)c1)c1cc(C(=O)OC)ccc1OC	1.1
CO[C@H]1O[C@H](CO)[C@@H](OC(=O)Nc2ccc3c(c2)OCO3)[C@H](OC(=O)Nc2ccccc2)[C@@H]1OC(=O)Nc1ccccc1	-0.279
COc1ccc([Si](C)(C)[C@H]2[C@H](CC(=O)N(CCO)Cc3ccccc3)O[C@@]3(C(=O)N(C)c4ccccc43)[C@@H]2C)cc1	-0.836
CCCC=C(CCC)[C@@H](NS(=O)(=O)c1ccc(C(F)(F)F)cc1)c1ccc(-c2ccccc2)cc1	-0.91
COCCCNC(=O)[C@@]1(c2ccc([N+](=O)[O-])cc2)CC(=O)N(C2CCCCC2)[C@@H]1c1ccc(CO)cc1	0.286
CCCCCCc1nc(-c2cc(C)c(OC)c(C)c2)cc2c1[Si](C(C)C)(C(C)C)O[C@H]2c1ccccc1	0.723
CCCC=C(CCC)[C@@H](NS(=O)(=O)c1ccc(-c2ccccc2)cc1)c1ccc(C(=O)OC)cc1	-1.34
COc1cc([C@@H]2N[C@H](C(=O)O)Cc3c2[nH]c2ccccc32)cc(OC)c1OC	0.937
O=C1c2ccccc2[C@@]2(Cc3ccccc3N(CC(F)(F)F)C2=O)[C@H](c2ccc(CO)cc2)N1C1CCCCC1	-0.449
COCCOC(=O)N1C(=O)[C@@]2(c3cc(C#CCC(C(=O)OC)C(=O)OC)ccc31)[C@H](c1ccccc1OCCO)N1[C@H](c3ccccc3)[C@H](c3ccccc3)OC(=O)[C@H]1[C@@H]2C(=O)N1CCCCCCC1	0.579
NC(=O)NCC#Cc1ccc2c(c1)[C@]1(C(=O)N2)[C@H](c2ccccc2OCCO)N2[C@H](c3ccccc3)[C@H](c3ccccc3)OC(=O)[C@H]2[C@@H]1C(=O)N1CCN(c2ncccn2)CC1	-0.525
COc1cccc([C@@H]2[C@@H](C)CC[C@H]3C(=O)N4[C@H](c5cccc(OC)c5)[C@@H](C)CC[C@H]4C(=O)N23)c1	2.04
COc1ccc([Si](C)(C)[C@H]2[C@H](CC(=O)N3Cc4ccccc4C[C@H]3CO)O[C@@]3(C(=O)N(Cc4cccc(N5CCOC5=O)c4)c4ccccc43)[C@@H]2C)cc1	0.443
CCCNC(=O)[C@@]1(Sc2ccc(C)cc2)CC(=O)N(Cc2ccccc2Cl)[C@@H]1c1ccc(CO)cc1	0.648
COC(=O)C1=CC(c2ccc(CO)cc2)=CC(c2cccs2)N(Cc2cccc(OC(F)(F)F)c2)C=C1C(=O)OC (configuration not stated)	-0.425
CN(C)CCCC[C@@H]1NC(=O)[C@@H]2C[C@H](C(=O)NCCCCCNC(=O)CS)[C@H](c3ccc(O)cc3)N2C1=O	0.748
CC[C@H]1C2=C3C(CC[C@H]4C(OC)OC[C@](C)([C@@H]34)N(C(=O)OC(C)(C)C)C2)C(CO)C1CO (some centres not stated)	-0.499
O=C1O[C@H](c2ccccc2)[C@H](c2ccccc2)N2[C@H]1[C@@H](C(=O)NC[C@H](O)c1ccccc1)[C@]1(C(=O)Nc3ccc(C#CC4(O)CCCCCC4)cc31)[C@H]2c1ccc(OCCO)cc1	-1.2
COc1ccc(NN2C(C(O)c3cc(OC)c(OC)c(OC)c3)C=CC3C(=O)N(C4CCCCC4)C(=O)C32)cc1 (configuration not stated)	-0.753
C=C(/C(=C/C[C@@H](OC(=O)c1ccncc1)c1ccc(CO)o1)c1cnc2ccccc2c1)C(C)C	0.755
